Below is a list of entries, each paired with its recorded solubility kinetic value.
- conditionNotes: buffer; pH 7.4; 200.0 µM
observationType: solubility kinetic

molecule="COc1ccc(CN2C(=O)c3ccccc3C2OC)cc1 (centres undefined)" observationtype="solubility kinetic" endpointresult="> 42.5 µg/mL"
molecule=CC(C)OCCCNC(=O)Nc1cccc2ccccc12 observationtype="solubility kinetic" endpointresult="> 43 µg/mL"
molecule="CC(C(=O)Nc1ccccc1)N1CCN(C(=O)c2ccco2)CC1 (centres undefined)" observationtype="solubility kinetic" endpointresult="> 49.1 µg/mL"
molecule=Cc1nn(CC(=O)NCCC2=CCCCC2)c(C)c1S(=O)(=O)N(C)C observationtype="solubility kinetic" endpointresult="> 55.3 µg/mL"

----------
- conditionNotes: buffer; pH 7.4; 200.0 µM
observationType: solubility kinetic (µg/mL)

molecule=Cc1ccc(NC(=S)Nc2ccc3[nH]c(=O)[nH]c3c2)cc1 outputunit=µg/mL comparisonsymbol== endpointresult=44
molecule=O=C(Nc1cccc(Cl)c1)N1C[C@H]2C[C@@H](C1)c1cccc(=O)n1C2 outputunit=µg/mL comparisonsymbol=> endpointresult=51.6
molecule=CC(C)(CO)Nc1ncnc2onc(-c3ccc(F)cc3)c12 outputunit=µg/mL comparisonsymbol=> endpointresult=45.3
molecule=Cc1ccc(Cc2c(C)[nH]c(=S)[nH]c2=O)cc1 outputunit=µg/mL comparisonsymbol== endpointresult=7.4
molecule=CCOC(=O)c1c(C)n(CC)c2c1cc(O)c1ccccc12 outputunit=µg/mL comparisonsymbol=< endpointresult=0.6
molecule=CCC(=O)c1cn(Cc2ccccc2)c2ccccc12 outputunit=µg/mL comparisonsymbol== endpointresult=1
molecule=Cc1cc(NC(=O)CSc2nnc(C)o2)no1 outputunit=µg/mL comparisonsymbol=> endpointresult=38.1
molecule="CC1(C)C/C(=N\\O)C(C(O)c2cccc([N+](=O)[O-])c2)C(C)(C)N1 (stereo unspecified)" outputunit=µg/mL comparisonsymbol== endpointresult=40.4
molecule=CC(C)c1ccccc1NC(=O)Nc1ccc(F)cc1F outputunit=µg/mL comparisonsymbol== endpointresult=2.7
molecule=O=C(COC(=O)c1ccc2c(c1)OCCO2)NCCc1ccccc1 outputunit=µg/mL comparisonsymbol== endpointresult=11.7
molecule=CCNC(=O)COC(=O)CCNC(=O)c1ccc(Cl)cc1 outputunit=µg/mL comparisonsymbol=> endpointresult=46.9
molecule=Cc1ccc2oc(=O)c3cc(C(=O)N4CCN(C)CC4)sc3c2c1 outputunit=µg/mL comparisonsymbol== endpointresult=11.8
molecule="CC(C(=O)N1CCCC1)N(c1ccccc1)S(C)(=O)=O (stereo unspecified)" outputunit=µg/mL comparisonsymbol=> endpointresult=44.5
molecule=O=C(NC(=S)Nc1ccccc1Br)c1ccco1 outputunit=µg/mL comparisonsymbol== endpointresult=3.1
molecule=COc1ccc(NC(=O)c2cccnn2)cc1 outputunit=µg/mL comparisonsymbol=> endpointresult=34.4
molecule=Cc1csc(NC(=O)CN2C(=O)c3ccccc3C2=O)c1C(N)=O outputunit=µg/mL comparisonsymbol== endpointresult=13
molecule=Cc1ccc(S(=O)(=O)N2CCN(C(=O)N(C)C)CC2)cc1 outputunit=µg/mL comparisonsymbol=> endpointresult=46.7
molecule="COc1ccc(C(=O)NCC(c2ccco2)N2CCOCC2)cc1OC (stereo unspecified)" outputunit=µg/mL comparisonsymbol=> endpointresult=54.1
molecule=O=C1CSCC(=O)N1Cc1ccc(Cl)c(Cl)c1 outputunit=µg/mL comparisonsymbol== endpointresult=43.2
molecule=CCCCNC(=O)N1CCN(C(c2ccccc2)c2ccccc2)CC1 outputunit=µg/mL comparisonsymbol== endpointresult=5
molecule=CC(C)Oc1nc(-c2ccccc2Cl)nc2ccccc12 outputunit=µg/mL comparisonsymbol== endpointresult=0.4
molecule=CCOC(=O)c1cc([N+](=O)[O-])sc1N outputunit=µg/mL comparisonsymbol== endpointresult=4.6
molecule="CCN(CC)C(=O)C(Oc1ccc(C)nc1[N+](=O)[O-])c1ccccc1 (stereo unspecified)" outputunit=µg/mL comparisonsymbol== endpointresult=48.6
molecule=Cn1c(O)c(/C=N/NC(=O)c2ccncc2)c(=O)n(C)c1=S outputunit=µg/mL comparisonsymbol=> endpointresult=47.9
molecule=O=C(/C=C/c1cccc(F)c1)c1ccc(N2CCOCC2)cc1 outputunit=µg/mL comparisonsymbol== endpointresult=5.8
molecule=COc1ccc(OC)c(-c2c3c([nH]c(=S)c2C#N)CCCC3)c1 outputunit=µg/mL comparisonsymbol== endpointresult=10.4
molecule=Cc1cc(C)c(C#N)c(Nc2ccccc2F)n1 outputunit=µg/mL comparisonsymbol== endpointresult=5.1
molecule=Cc1cccc2cc(CN(Cc3ccco3)C(=O)c3ccco3)c(=O)[nH]c12 outputunit=µg/mL comparisonsymbol== endpointresult=0.8
molecule=COc1ccc(S(=O)(=O)NC2CCCC2)c(OC)c1 outputunit=µg/mL comparisonsymbol=> endpointresult=42.8
molecule="CCOC(=O)C1(Cc2ccccc2)C(=O)N(CCCN(C)C)c2ccccc21.Cl (stereo unspecified)" outputunit=µg/mL comparisonsymbol== endpointresult=57
molecule="CCOc1cccc(C2C(C(=O)c3ccc(C)o3)=C(O)C(=O)N2Cc2ccccc2)c1 (stereo unspecified)" outputunit=µg/mL comparisonsymbol== endpointresult=62.5
molecule=Cn1c(N)c(C(=O)COC(=O)c2ccc3ccccc3c2)c(=O)n(C)c1=O outputunit=µg/mL comparisonsymbol== endpointresult=3.8
molecule=Cc1ccccc1OCC(=O)Nc1ccccc1-c1ccccc1 outputunit=µg/mL comparisonsymbol=< endpointresult=0.7
molecule=O=C(CN1CCN(C/C=C/c2ccccc2)CC1)Nc1ccc(F)cc1F outputunit=µg/mL comparisonsymbol== endpointresult=49.9
molecule="COC(=O)C1Cc2ccccc2CN1S(=O)(=O)c1ccc(F)cc1 (stereo unspecified)" outputunit=µg/mL comparisonsymbol== endpointresult=35.4
molecule=N#Cc1nc(-c2ccc(F)cc2)oc1N1CCC(C(N)=O)CC1 outputunit=µg/mL comparisonsymbol== endpointresult=12.4
molecule=CCOc1ccc(CCNC(=O)C2(c3ccccc3)CC2)cc1OCC outputunit=µg/mL comparisonsymbol=> endpointresult=53
molecule="CCC(C(=O)NCCc1ccc(S(N)(=O)=O)cc1)c1ccccc1 (stereo unspecified)" outputunit=µg/mL comparisonsymbol=> endpointresult=52
molecule=Cc1ccc(C(=O)Nn2cnc3ccccc3c2=O)cc1C outputunit=µg/mL comparisonsymbol=> endpointresult=44
molecule="Cc1ccc2c(c1)N(CC(=O)N1CCOCC1)C(=O)C(C)O2 (stereo unspecified)" outputunit=µg/mL comparisonsymbol== endpointresult=39.6
molecule="O=C(O)CCC(=O)N1CCc2c([nH]c3ccccc23)C1C(F)(F)F (stereo unspecified)" outputunit=µg/mL comparisonsymbol=> endpointresult=51

----------
- conditionNotes: buffer; pH 7.4; 200.0 µM
observationType: log10(solubility kinetic) (log10 of the value in µg/mL)

compound=Cc1ccc2ccc(S(=O)(=O)NCc3ccco3)cc2c1 endpointresult=1.57
compound=FC(F)Oc1cccc(NC(=S)N2CCN(c3ccccn3)CC2)c1 endpointresult=0.36
compound=CCOC(=O)Cc1csc(NC(=O)CN2CCCCC2)n1 endpointresult=1.62
compound=N#CCSc1ccc(-c2nc3ccccc3[nH]2)cn1 endpointresult=1.23
compound=Cn1c(N)c(C(=O)COc2ccc(C#N)cc2)c(=O)n(C)c1=O endpointresult=0.97
compound=CSc1ncccc1C(=O)Nc1nc2ccc(F)cc2s1 endpointresult=0.26
compound=COc1ccc(N=Cc2nc(-c3ccccc3)oc2OC(C)=O)cc1 endpointresult=0.20
compound=COCc1cc(C)nc(SCC(=O)Oc2ccccc2)c1C#N endpointresult=1.46

----------
- conditionNotes: buffer; pH 7.4; 200.0 µM
observationType: solubility kinetic

compound=c1ccc2sc(C3CCNCC3)nc2c1 observationtype="solubility kinetic" endpointresult="> 32.7 µg/mL"
compound=CC(=O)N/N=C(\C)c1cccc(C(F)(F)F)c1 observationtype="solubility kinetic" endpointresult="> 36.6 µg/mL"
compound=CCc1ccc2oc(C(=O)N3CCN(C)CC3)cc(=O)c2c1 observationtype="solubility kinetic" endpointresult="> 45.1 µg/mL"
compound=O=c1ccnc(Nc2ccc([N+](=O)[O-])cc2)[nH]1 observationtype="solubility kinetic" endpointresult="> 34.8 µg/mL"
compound=O=C(CSc1nnc(C2CC2)n1C1CC1)c1ccccc1F observationtype="solubility kinetic" endpointresult="> 47.6 µg/mL"

----------
- conditionNotes: buffer; pH 7.4; 200.0 µM
observationType: solubility kinetic

compound="CC(c1ccccc1)c1nnc(N)s1 (centres undefined)" endpointresult="> 30.8 µg/mL"
compound=O=C(NCCc1cccc(Cl)c1)c1cc2ccccc2oc1=O endpointresult="< 0.7 µg/mL"
compound=COc1ccc(S(=O)(=O)N2CCN(CC(=O)N3CCOCC3)CC2)cc1OC endpointresult="> 62 µg/mL"
compound=CC(C)(C)NC(=O)C(=O)NCc1ccccn1 endpointresult="> 35.3 µg/mL"
compound=Cc1ccc(C)c(-n2c3nc(=O)n(C)c(=O)c-3cc3ccccc32)c1 endpointresult="> 49.7 µg/mL"
compound=O=C1c2ccsc2SCCN1Cc1c(F)cccc1Cl endpointresult="44.4 µg/mL"
compound=O=c1[nH]c(-[n+]2ccccc2)c(/C=N/N=C(\[O-])c2ccccc2)s1 endpointresult="> 48.7 µg/mL"
compound=CCCC(=O)OCC(=O)Nc1ccccc1C#N endpointresult="> 36.9 µg/mL"
compound="O=C(Nc1cccc(Cl)c1)C1CCCN(c2cnccn2)C1 (centres undefined)" endpointresult="> 47.5 µg/mL"
compound=NS(=O)(=O)c1ccc(CCNC(=O)c2ccc(-c3ccccc3)cc2)cc1 endpointresult="< 0.4 µg/mL"
compound="CCCCOc1ccccc1C1NC(=O)CCC1[N+](=O)[O-] (centres undefined)" endpointresult="> 43.9 µg/mL"
compound=CC(C)C(=O)Nc1ncc(Cc2ccccc2Cl)s1 endpointresult="< 0.3 µg/mL"
compound=CC(=O)Nc1ccc(SCC(=O)N(C)CC(=O)Nc2ccccc2Cl)cc1 endpointresult="> 60.9 µg/mL"
compound=COc1cc(SC)ccc1C(=O)N(Cc1ccccc1)c1ccccc1 endpointresult="6.3 µg/mL"
compound=COc1cc(CNc2ccc3[nH]c(=O)[nH]c3c2)ccc1OCC(=O)NC(C)(C)C endpointresult="52.3 µg/mL"
compound=CC(C)(C)c1csc(Sc2ncccc2[N+](=O)[O-])n1 endpointresult="1.7 µg/mL"
compound="COc1ccc(C(=O)N2CCc3cc4c(cc3C2C)OCCCO4)cc1 (centres undefined)" endpointresult="> 53 µg/mL"
compound="OC1CCC(Nc2ncnc3sccc23)CC1 (centres undefined)" endpointresult="> 37.4 µg/mL"
compound="CCC(Sc1ncccc1Nc1ccccn1)C(=O)O (centres undefined)" endpointresult="> 43.4 µg/mL"
compound=O=C(Nc1cccc(F)c1)Nc1ccc(Cl)cn1 endpointresult="< 0.2 µg/mL"
compound=O=C(c1ccc(-n2cccc2)cc1)N1CCCCC1 endpointresult="> 38.1 µg/mL"
compound=Cc1ccc(C)c(C(=O)CN2Cc3ccccc3C2=O)c1 endpointresult="6.1 µg/mL"
compound=Cc1nc2ccc(NC(=O)c3ccc([N+](=O)[O-])cc3)cc2[nH]1 endpointresult="30.6 µg/mL"
compound=C#CCOC(=O)C[N+](C)(C)CC#Cc1ccccc1.[Cl-] endpointresult="43.1 µg/mL"
compound=CNS(=O)(=O)c1cccc(C(=O)OCC(=O)Nc2ccc3ccccc3c2)c1 endpointresult="2.8 µg/mL"
compound=O=C(NNC(=O)C12CC3CC(CC(C3)C1)C2)c1cccc([N+](=O)[O-])c1 endpointresult="> 51.5 µg/mL"
compound="OC(c1nnc(-c2ccccc2)o1)c1cccs1 (centres undefined)" endpointresult="> 38.7 µg/mL"
compound=CC(=O)c1cn(Cc2ccccc2C#N)c2ccccc12 endpointresult="7 µg/mL"
compound=COc1ccc(CC(=O)NCCC2=CCCCC2)cc1 endpointresult="> 41 µg/mL"
compound="CCOC(=O)C1=C(N)Oc2cc(O)ccc2C1c1ccc(C)cc1 (centres undefined)" endpointresult="< 0.7 µg/mL"
compound=Cn1cnc2c1c(=O)n(Cc1ccc(Cl)cc1Cl)c(=O)n2C endpointresult="> 50.9 µg/mL"
compound=CCCCCn1c(N)c(C(=O)NCc2cccs2)c2nc3ccccc3nc21 endpointresult="0.9 µg/mL"
compound="CCC(C(=O)NCCc1ccccc1)c1ccccc1 (centres undefined)" endpointresult="> 40.1 µg/mL"
compound="COc1ccc(NC(=O)CN2C(=O)NC3(CCCCC3C)C2=O)cc1S(=O)(=O)N1CCOCC1 (centres undefined)" endpointresult="> 74.2 µg/mL"
compound=NC(=O)NOCc1cccc(Cl)c1 endpointresult="> 30.1 µg/mL"
compound=CCn1c(C)nc2cc(C(=O)OC)ccc21 endpointresult="> 32.7 µg/mL"
compound=CCOC(=O)c1[nH]c(C=O)c(C(=O)OCC)c1C endpointresult="20.7 µg/mL"
compound=O=C(CNC(=O)c1ccccc1)NCCCSc1ccccc1 endpointresult="25.2 µg/mL"
compound=O=C(O)c1ccc(N2C(=O)CCCC2=O)cc1 endpointresult="25.9 µg/mL"
